- targetUnderTest: T1, A1 ΔC20 (Mus musculus, UniProt Q07440)
- T1 construct: mouse A1 (Acc. no. NP_033872; residues 1-152); GST (N, cleaved yes); made in house
- T1 sequence (Q07440 1-152, stated change not applied): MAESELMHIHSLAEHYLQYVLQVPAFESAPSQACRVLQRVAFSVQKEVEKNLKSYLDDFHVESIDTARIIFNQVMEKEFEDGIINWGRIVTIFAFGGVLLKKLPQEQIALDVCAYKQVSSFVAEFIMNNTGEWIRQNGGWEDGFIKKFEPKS
- methodSummary: A1 ΔC20
reportedEndpoint: IC50 (nM)
One number for each entry, in nM.

Sample answers from the record:
Bik: full-length human BH3-only protein Bik expressed in cells (protein, UniProt Q13323 1-160, looked up, full-length) MSEVRPLSRDILMETLLYEQLLEPPTMEVLGMTDSEEDLDPMEDFDSLECMEGSDALALRLACIGDEMDVSLRAPRLAQLSEVAMHSLGLAFIYDQTEDIRDVLRSFMDGFTTLKENIMRFWRSPNPGSWVSCEQVLLALLLLLALLLPLLSGGLHLLLK : 58
Noxa: full-length BH3-only protein Noxa expressed in cells (mouse Noxa bearing two BH3s in co-immunoprecipitation) (protein, UniProt Q9JM54 1-103, looked up, full-length) MPGRKARRNAPVNPTRAELPPEFAAQLRKIGDKVYCTWSAPDITVVLAQMPGKSQKSRMRSPSPTRVPADLKDECAQLRRIGDKVNLRQKLLNLISKLFNLVT : 180

// below: IC50 requested for another molecule
**Q:** # IC50 lookup, item Bmf: BH3-only protein Bmf, expressed from retrovirus in MEFs, recombinant in GST pull-down (protein, UniProt Q91ZE9 1-185, looked up) Bcl-2-modifying factor: MEPPQCVEELEDDVFQSEDGEPGTQPGGLLSADLFAQSQLDCPLSRLQLFPLTHCCGPGLRPISQEDKATQTLSPASPSQGVMLPCGVTEEPQRLFYGNAGYRLPLPASFPAGSPLGEQPPEGQFLQHRAEVQIARKLQCIADQFHRLHTQQHQQNRDRAWWQVFLFLQNLALNRQENREGVGPW
**A:** 1800
